FYI, the data here is from patent US20260137706A1.

Experimental Target: binding of His-XIAP(BIR2)-avi fusion protein to GST-RIPK2 fusion protein (RIPK2/XIAP) (Homo sapiens)
Construct: made in house; host or cells: baculovirus infected Sf9 cells
Sequence (O43353 1-310 limits assumed): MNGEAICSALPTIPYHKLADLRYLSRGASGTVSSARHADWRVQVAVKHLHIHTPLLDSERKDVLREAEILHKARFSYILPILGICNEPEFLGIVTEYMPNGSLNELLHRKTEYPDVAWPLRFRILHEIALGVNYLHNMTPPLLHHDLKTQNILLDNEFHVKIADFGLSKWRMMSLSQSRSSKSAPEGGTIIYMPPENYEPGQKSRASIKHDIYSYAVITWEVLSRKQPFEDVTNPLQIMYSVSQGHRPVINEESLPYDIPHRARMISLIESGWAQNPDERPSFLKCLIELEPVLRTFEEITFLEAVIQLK
Assay: RIPK2-XIAP binding competition PPI assay (TR-FRET)
Settings: read-out: PPI Amax bin
The reader will find reported Emax values listed item by item below.

Example entries and their recorded answers appear below.
COc1cc2ncc(-c3cc(F)c(N)nc3F)n2cc1S(=O)(=O)N(C)C
> 80%
CC(C)(C)S(=O)(=O)c1cn2c(-c3cc(F)c(N)nc3F)cnc2cc1OCCO
> 80%
COc1cc2ncc(-c3cc(F)c(N)nc3F)n2cc1S(=O)(=O)C(C)(C)CN1CCN(C)CC1
> 80%

Could you now consider this next compound?
Prompt: What value of measured Emax is listed for COc1cc2ncc(-c3cc4cn[nH]c4cn3)n2cc1S(=O)(=O)C(C)(C)C ?
Response: < 30%
